From: ChEMBL document CHEMBL1138297

Kindly state inhibition for each of the entries shown.
Tested on: Yersinia pseudotuberculosis
procedure_text: Effect on T3S in Yersinia pseudotuberculosis 3 pIB29 assessed as inhibition of light emission at 100 uM by luciferase reporter gene assay
Response body: numeric value in %, unit text excluded.

Q: May I ask what inhibition has been recorded for CC(=O)Oc1ccc(Br)cc1C(=O)Nc1cc(C(C)(C)C)cc(C(C)(C)C)c1 ?
Result: 0

Q: May I ask what inhibition has been recorded for O=C(Nc1ccc(Br)cc1)c1cc(I)cc(I)c1O ?
Result: 100

Q: May I ask what inhibition has been recorded for CC(C)(C)c1ccc(NC(=O)c2cc(I)cc(I)c2O)cc1 ?
Result: 42

Q: May I ask what inhibition has been recorded for COc1cc(Cl)c(C)cc1NC(=O)c1cccc(C(C)C)c1O ?
Result: 5

Q: May I ask what inhibition has been recorded for CC(=O)Oc1c(I)cc(I)cc1C(=O)Nc1ccc(F)cc1 ?
Result: 93

Q: May I ask what inhibition has been recorded for O=C(Nc1ccc(Br)cc1)c1cc(I)ccc1O ?
Result: 60

Q: May I ask what inhibition has been recorded for CCCCCCCc1ccc(NC(=O)c2cc(I)cc(I)c2O)cc1 ?
Result: 3

Q: May I ask what inhibition has been recorded for CC(C)(C)c1ccc(NC(=O)c2cc(F)ccc2O)cc1 ?
Result: 8

Q: May I ask what inhibition has been recorded for CC(=O)Oc1c(Br)cc(Br)cc1C(=O)Nc1ccccc1F ?
Result: 83

Q: May I ask what inhibition has been recorded for CC(=O)Oc1c(Cl)cc(Cl)c(Cl)c1C(=O)Nc1ccc(C(C)(C)C)cc1 ?
Result: 12

Q: May I ask what inhibition has been recorded for COc1cc(Cl)c(C)cc1NC(=O)c1cc(C)ccc1O ?
Result: -1

Q: May I ask what inhibition has been recorded for O=C(Nc1ccc(SC(F)(F)F)cc1)c1cc2cc(Br)ccc2c(Br)c1O ?
Result: 63

Q: May I ask what inhibition has been recorded for O=C(Nc1ccc(SC(F)(F)F)cc1)c1cccc(Cl)c1O ?
Result: 100

Q: May I ask what inhibition has been recorded for CC(=O)Oc1c(Cl)cccc1C(=O)Nc1ccc(Br)cc1 ?
Result: 99

Q: May I ask what inhibition has been recorded for CC(=O)Oc1ccc(I)cc1C(=O)Nc1ccc(Br)cc1 ?
Result: 100

Q: May I ask what inhibition has been recorded for O=C(Nc1ccc(Cl)cc1)c1cc(I)ccc1O ?
Result: 78

Q: May I ask what inhibition has been recorded for O=C(Nc1cc(Cl)ccc1F)c1cc(I)cc(I)c1O ?
Result: 100

Q: May I ask what inhibition has been recorded for COc1cc(Cl)c(C)cc1NC(=O)c1cc(I)cc(I)c1OC(C)=O ?
Result: 50
